Origin of measurements: patent US20250145722A1

Target or test system: T1, human Galectin-3 (Gal3), full-length recombinant (human, UniProt P17931 2-250)
T1 construct: treated here as one molecule; also called hGAL3; hGal3
T1 sequence (P17931 2-250 limits assumed): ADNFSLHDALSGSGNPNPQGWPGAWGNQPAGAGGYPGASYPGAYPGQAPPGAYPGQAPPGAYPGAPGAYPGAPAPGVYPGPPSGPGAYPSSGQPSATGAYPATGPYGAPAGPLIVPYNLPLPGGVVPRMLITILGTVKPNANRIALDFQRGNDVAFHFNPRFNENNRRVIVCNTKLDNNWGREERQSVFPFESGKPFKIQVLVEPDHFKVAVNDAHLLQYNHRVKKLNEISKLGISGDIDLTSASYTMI
Test summary: blocking ELISA, Gal3 coated, PDGFR alpha-Fc, antibody 20 µg/ml
% blocking of Gal3-PDGFR alpha binding: recorded values

Examples from the recorded data:
Binder | % blocking of Gal3-PDGFR alpha binding
13G4.2F8 (antibody, human IgG4 S228P, kappa, V domains shown) VH: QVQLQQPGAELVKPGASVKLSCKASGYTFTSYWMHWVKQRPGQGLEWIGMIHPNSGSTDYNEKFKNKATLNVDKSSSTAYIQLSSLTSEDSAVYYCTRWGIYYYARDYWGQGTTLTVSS VL: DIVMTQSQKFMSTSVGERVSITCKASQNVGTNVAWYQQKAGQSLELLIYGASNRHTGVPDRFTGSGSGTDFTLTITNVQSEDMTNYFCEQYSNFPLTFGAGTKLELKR | < 30%
24D12.2H9 (antibody, human IgG4 S228P, kappa, V domains shown) VH: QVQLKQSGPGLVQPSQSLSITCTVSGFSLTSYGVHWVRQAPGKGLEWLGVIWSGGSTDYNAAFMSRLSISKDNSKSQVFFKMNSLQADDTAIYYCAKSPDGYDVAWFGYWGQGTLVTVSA VL: DIVMTQSHKFMSTSVGDRVSITCKASQDVRTAVAWYQQKPGQSPKLLIYWASTRHTGVPDRFTGSGSGTDFTLTLSNVQSEDLADYFCQQYSSYPWTFGGGTKLEIKR | < 30%

Continue with the binder presented below.
Q: Endpoint output: % blocking of Gal3-PDGFR alpha binding of 6H6.2D6 (antibody, human IgG4 S228P, kappa, V domains shown) VH: QIQLVQSGPELKKPGETVKISCKASGYTFTTYGMSWVKQAPGKGLKWMAWINTYSGVPTYADDFKGRFAFSLETSASTAYLQINNLTNEDTATYFCARGPYAMDYWGQGTSVTVSS VL: DIQMTQTTSSLSASLGDRVTISCSASQGISNYLNWYQQKPDGTVKLLIYYTSSLHSGVPSRFSGSGSGTDYSLTISNLEPEDIATYYCQQYSELPYTFGSGTKLEIKR . Value?
Result: > 70%
